In this section, each of the molecules is paired with its reported MRT inf.
Experiment: Pharmacokinetics in Sprague Dawley rats
Format: in vivo, rat
Settings: Sprague Dawley, in vivo; rat; IV 2 mg/kg; read-out: MRT0-∞
assayMetric: MRT inf (min)

INSERT INTO assay_data (compound, measured) VALUES
  ('Cc1ccc(C(=O)Nc2cccc3ccc(C)nc23)c(Cl)c1', 35.4),
  ('Cc1ccc2cccc(NC(=O)c3cccc(OC(C)C)c3)c2n1', 27),
  ('COc1c(C)cccc1C(=O)Nc1cccc2ccc(C)nc12', 27.6);

---

Assay: Pharmacokinetics in Sprague Dawley rats
Type: in vivo, rat
Conditions: Sprague Dawley, in vivo; rat; PO 10 mg/kg; read-out: MRT0-∞
assayMetric: MRT inf

INSERT INTO measurements (compound, measured) VALUES
  ('Cc1ccc2cccc(NC(=O)c3cccc(OC(C)C)c3)c2n1 [Compound A13]', '38.4 min'),
  ('COc1c(C)cccc1C(=O)Nc1cccc2ccc(C)nc12 [Compound A19]', '45 min'),
  ('Cc1ccc(C(=O)Nc2cccc3ccc(C)nc23)c(Cl)c1 [Compound A17]', '67.8 min');

---

Assay: Pharmacokinetics in Sprague Dawley rats
Format: in vivo, rat
Details: rat, plasma; Sprague Dawley rats; oral, 2 mg/kg P.O.; read-out: AUClast
assayMetric: AUC(0-t) (µM·h)

INSERT INTO assay_data (compound, readingunit, measured) VALUES
  ('Cc1ccc2cccc(NC(=O)c3ccc(OC(C)C)cc3)c2n1', 'µM·h', 0.41);

---

Assay: Pharmacokinetics in Sprague Dawley rats
Assay type: in vivo, rat
Conditions: Sprague Dawley, in vivo; rat; IV 2 mg/kg
Below is a list of entries, each paired with its recorded half-life value.
assayMetric: half-life

INSERT INTO results (compound, assaymetric, measured) VALUES
  ('COc1c(C)cccc1C(=O)Nc1cccc2ccc(C)nc12', 'half-life', '27 min'),
  ('Cc1ccc2cccc(NC(=O)c3cccc(OC(C)C)c3)c2n1', 'half-life', '121 min'),
  ('Cc1ccc(C(=O)Nc2cccc3ccc(C)nc23)c(Cl)c1', 'half-life', '54 min');

---

Recorded Vd by entry
Experiment: Pharmacokinetics in Sprague Dawley rats
Format: in vivo, rat
Conditions: Sprague Dawley, in vivo; rat; IV 2 mg/kg; read-out: Vz
assayMetric: Vd (L/kg)

INSERT INTO assay_data (compound, measured) VALUES
  ('Cc1ccc2cccc(NC(=O)c3cccc(OC(C)C)c3)c2n1 [Compound A13]', 6.87),
  ('Cc1ccc(C(=O)Nc2cccc3ccc(C)nc23)c(Cl)c1 [Compound A17]', 7.01);

---

Assay: Pharmacokinetics in Beagle dogs
Assay type: in vivo
Conditions: male, Beagle, plasma; dog; PO 10 mg/kg
assayMetric: Tmax (min)

INSERT INTO measurements (compound, assaymetric, measured) VALUES
  ('Cc1ccc2cccc(NC(=O)c3cccc(OC(C)C)c3)c2n1', 'Tmax', 21.6);
